tested on: 299254-011-R-J1-PDC complex spheroid viability; test: Anticancer human tumor 299254-011-R-J1-PDC patient-derived melanoma cell line growth inhibition [POLQ]; details: second compound 1 µM; first compound 0.1 µM; active compounds read low
Below, each entry is listed alongside its reported viability, T/C.
Answer with a number only, understood to be in %.

{"MOLECULE": "CC1COCCN1c1cc(C2(S(C)(=N)=O)CC2)nc(-c2ccnc3[nH]ccc23)n1 (stereo unspecified) + Nc1ccc(C#CCN(C(=O)Cc2ncc(C(F)(F)F)cc2C(F)(F)F)c2ccc(F)cc2)nn1", "QUANTITY_UNIT": "%", "READING": 111}

Query: Name the reported viability, T/C value associated with the molecule CC[C@@]1(O)C(=O)OCc2c1cc1n(c2=O)Cc2cc3c(CN(C)C)c(O)ccc3nc2-1 + Cc1cccc(N(C)C(=O)C2C(O)CCN2c2nc(C)cc(C(F)(F)F)c2C#N)c1
Reply: 90.5

Query: Reported viability, T/C, molecule CNCc1ccc(-c2[nH]c3cc(F)cc4c3c2CCNC4=O)cc1 + COC1C(OC(N)=O)C(O)C(Oc2ccc3c(O)c(NC(=O)c4ccc(O)c(CC=C(C)C)c4)c(=O)oc3c2C)OC1(C)C : ____
Reply: 105

Query: Look up viability, T/C for this molecule: O=c1[nH]cc(F)c(=O)[nH]1 + COC1C(OC(N)=O)C(O)C(Oc2ccc3c(O)c(NC(=O)c4ccc(O)c(CC=C(C)C)c4)c(=O)oc3c2C)OC1(C)C
Reply: 115

Query: Which viability, T/C is reported for this molecule? O=C(Nc1ccc(O)c(NS(=O)(=O)c2ccc(F)cc2)c1)c1ccc(-c2ccccc2)cc1 + Cc1cccc(N(C)C(=O)C2C(O)CCN2c2nc(C)cc(C(F)(F)F)c2C#N)c1
Reply: 111

Query: # viability, T/C lookup, item COc1cc2cc(C(=O)CCC(=O)O)sc2cc1OC + Cc1cccc(N(C)C(=O)C2C(O)CCN2c2nc(C)cc(C(F)(F)F)c2C#N)c1
Reply: 109

Query: Look up viability, T/C: CC1COCCN1c1cc(C2(O)CC3CCC(C2)O3)c2cnn(-c3ccn[nH]3)c2n1 (stereo unspecified) + COC1C(OC(N)=O)C(O)C(Oc2ccc3c(O)c(NC(=O)c4ccc(O)c(CC=C(C)C)c4)c(=O)oc3c2C)OC1(C)C
Reply: 56.5

----------
system: 299254-011-R-J1-PDC complex spheroid viability; test: Anticancer human tumor 299254-011-R-J1-PDC cell line growth inhibition [POLQ]; details: second compound 0.1 µM; first compound 1 µM; active compounds read low;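 further: spheroids exposed to drugs for one week before measurement; percent viability relative to DMSO vehicle control taken as 100%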
QUANTITY_MEASURED: viability, T/C (%)
Give the quantity in %, number only.

Query: What measured viability, T/C is associated with O=c1[nH]cc(F)c(=O)[nH]1 + COC1C(OC(N)=O)C(O)C(Oc2ccc3c(O)c(NC(=O)c4ccc(O)c(CC=C(C)C)c4)c(=O)oc3c2C)OC1(C)C on 299254-011-R-J1-PDC complex spheroid viability?
Reply: 113

Query: Query for 299254-011-R-J1-PDC complex spheroid viability: what viability, T/C does the record show for CC(C)n1c(=O)n(C)c2cnc3cc(F)c(-c4ccc(OCCCN5CCCCC5)nc4)cc3c21 + COC1C(OC(N)=O)C(O)C(Oc2ccc3c(O)c(NC(=O)c4ccc(O)c(CC=C(C)C)c4)c(=O)oc3c2C)OC1(C)C ?
Reply: 131

Query: What viability, T/C appears in the records for this compound with 299254-011-R-J1-PDC complex spheroid viability? C=CC(=O)N1CCN(c2nc(=O)n(-c3c(C)ccnc3C(C)C)c3nc(-c4c(O)cccc4F)c(F)cc23)C(C)C1 (stereo not drawn) + Nc1ccc(C#CCN(C(=O)Cc2ncc(C(F)(F)F)cc2C(F)(F)F)c2ccc(F)cc2)nn1
Reply: 86.2
